- test.method.notes: in vivo
- applied.conditions: tumor, 50 mg/kg
metric: concentration at 6 h (ng/mL)

>>> df
                                smiles_text  test_result
0  NC(=O)c1cccc2cn(-c3ccc([C@@H]4CCCNC4)cc3)nc12         4570

----------
- test.method.notes: physchem
metric: pKa

                                smiles_text  test_result
0  NC(=O)c1cccc2cn(-c3ccc([C@@H]4CCCNC4)cc3)nc12         9.95
